- experiment_notes: Human HepG2 cell viability assay in 384 well format
- Format: toxicity, cell-based
- Design: dose 125 nL, time 70.5 hour; concentration not given beside the values
- condition_set: HepG2 cells, read-out: Inhibition
endpoint_label: cytotoxicity at 70.5 h (%)

1. Cn1cccc1C(=O)N1C[C@H](OCC2CCOCC2)[C@H]2COC[C@H]21 ... -10.8
2. CCc1nc(C2CCCN2C(=O)c2nc(C)n3ccccc23)no1 (stereo not given) ... -7.79
3. Cc1cc(OCC(=O)NCc2ccc(F)cc2)nnc1C ... -6.01
4. CN1CCN(CC(NCc2cccc(O)c2)c2ccccc2)CC1 (stereo not given) ... -5.45
5. CC1CCN(S(=O)(=O)N2CCCN(CC3CCCO3)CC2)CC1 (stereo not given) ... 13.3

---

Quick reference for cytotoxicity at 70.5 h among some compounds
- experiment_notes: Human HepG2 cell viability assay in 384 well format
- Format: toxicity, cell-based
- Set-up: dose 125 nL, time 70.5 hour; concentration not given beside the values
- condition_set: HepG2 cells, read-out: Inhibition
endpoint_label: cytotoxicity at 70.5 h (%)

1) CC(=O)N[C@@H]1CN(Cc2oc3ccccc3c2C)C[C@H]1c1ccc(C)o1 ... -7.22
2) Fc1cccc(C(NCc2ncc[nH]2)c2ccccn2)c1 (stereo not drawn) ... -6.19
3) O=C(c1cc2c(s1)CCCC2)N1CCCC1Cn1cccn1 (stereo not drawn) ... -4.37
4) COC(=O)[C@H](CC(C)C)NC(=O)c1snnc1-c1ccc(OC)cc1 ... 10.9
5) COC(=O)N1CCC2(CC1)CC(c1ccccc1)CN(C)C2 (stereo not drawn) ... -0.459
6) CCOc1ccc(CN2CCN(C(=O)c3cc(C4CC4)[nH]n3)CC2)cc1 ... -2.02
7) Cc1cc(C)n(CC2CCCCN2CCC(=O)Nc2cc(C)on2)n1 (stereo not drawn) ... -10.3
8) O=S(=O)(NC1CCC2(CC1)OCCO2)c1ccccc1Br ... -1.96
9) CC(C)c1nc(CN2CCOC(Cn3cncn3)C2)cs1 (stereo not drawn) ... -3.19
10) CN(C)C(=O)C1(C)CN(Cc2cn(C)c3ccc(F)cc23)CCO1 (stereo not drawn) ... 9.86
11) Cc1cnn(CC2CCCN2Cc2noc(C3CC3)n2)c1 (stereo not drawn) ... 0.359
12) COC(=O)c1cc(OCC2CCC2)cc(C(=O)N[C@H](C)C(N)=O)c1 ... -10.2
13) O=C(c1cc(-c2ccco2)nc2c(Cl)cccc12)N1CCS(=O)(=O)CC1 ... -11.9
14) CNC(=O)C1CCN(c2ncnc3c2CCN(C(=O)C2CC2)C3)C1 (stereo not drawn) ... -5.76
15) CC1CCCCN1C(=O)CN1CCN(c2ccc3nncn3n2)CC1 (stereo not drawn) ... -11.2
16) COc1cccc(Nc2nc(C3CCNCC3)c3sc(C)c(C)n23)c1 ... -7.32
17) CCn1ccnc1CN1CCNCC1C (stereo not drawn) ... -5.16
18) CC(C)=CCN1CCOC(Cn2cccn2)C1 (stereo not drawn) ... 1.11
19) Cc1[nH]c2nc(CNc3cccc(Cl)c3)nn2c(=O)c1C ... -11.7
20) CCOCCN1CCN(CCC(=O)N2CCCCC2)CC1 ... -8.84
21) CS(=O)(=O)N1CC2(CCN(Cc3ccccn3)C2)Cc2ccccc21 (stereo not drawn) ... -8
22) CC(C)c1nc(CN(CC(N)=O)C(C)C)cs1 ... -2.05
23) O=S(=O)(Nc1cnn(C2CCOCC2)c1)c1ccc2c(c1)CCO2 ... -5.29
24) CC(C)Oc1cccc(CNC(Cc2ccsc2)c2nccs2)c1 (stereo not drawn) ... -2.9
25) NC(=O)C1(CCCc2ccncc2)CCCN1 (stereo not drawn) ... -3.08
26) CC(C)Oc1ccc(C(=O)Cn2cnnc2[S+](C)[O-])cc1 (stereo not drawn) ... -7.07
27) Cn1ncc2c1CN(Cc1ccccc1F)CC2COCC1CC1 (stereo not drawn) ... 23.7
28) Cc1ccc(-c2cn[nH]c2C2CCCN(c3cnccn3)C2)cc1 (stereo not drawn) ... 10.6
29) CN(C)Cc1nnc(C2CCN(c3nccc(N)n3)CC2)n1C1CC1 ... 2.16
30) CCN(C)C(=O)c1ccnn1-c1ccc2ccccn12 ... 1.76
31) COCCS(=O)(=O)NC(=O)c1nnn(-c2ccc(F)cc2)c1C1CC1 ... 2
32) Cc1c(C(=O)N2CCC(O)(CN(C)C)C2)c2cc(O)ccc2n1C (stereo not drawn) ... -9.59
33) Cc1cc(NC(=O)CN2CCCC2c2noc(C)n2)n(C)n1 (stereo not drawn) ... -5.38

---

- experiment_notes: Human HepG2 cell viability assay in 384 well format
- Assay type: toxicity, cell-based
- Parameters: dose 125 nL, time 70.5 hour; concentration not given beside the values
- condition_set: HepG2 cells, read-out: Inhibition
Quick reference for cytotoxicity at 70.5 h among some compounds
endpoint_label: cytotoxicity at 70.5 h (%)

1) CC(C)OCCOCc1cccc(NC(=O)NCc2ccncc2)c1 ... 2.35
2) c1cncc(CN2CC[C@@H]3O[C@H](COCCN4CCCC4)CC[C@@H]32)c1 ... 5.3
3) CN(C)C[C@H]1OC[C@@H]2CCN(S(=O)(=O)c3ccccc3)C[C@@H]21 ... 22.9
4) COCCN1C(=O)[C@H]2CC[C@@H]1CN(c1nccc(C3CCCC3)n1)C2 ... -4.32
5) CN(C)c1ccc(C(=O)Nc2ccn(CC(N)=O)n2)cn1 ... -8.63
6) CCc1nnsc1C(=O)N1CCN(CC(O)C(C)(C)C)CC1 (configuration not stated) ... -10.2
7) Cc1ccc(CC(=O)N2CCCC(n3ccnc3C(C)C)C2)cn1 (configuration not stated) ... -7.44
8) CCNC(=O)NC(=O)C(C)N1CCCc2cc(OC)ccc2C1 (configuration not stated) ... -10.4
9) c1cc(C2CCCN2CC2CC2)n[nH]1 (configuration not stated) ... -9.13
10) COCCC(=O)N1CCCC1c1nc(O)cc(C(C)C)n1 (configuration not stated) ... -0.774
11) O=C1NCC2CN(Cc3ccccc3OCc3ccccn3)CCN12 (configuration not stated) ... -13.1
12) COc1c[nH]c(C(=O)N2CCN(c3ccc(Cl)cc3)CC2)cc1=O ... 20.3
13) O=C(c1ccno1)N1CC(c2nc(-c3ccco3)no2)C1 ... -1.91
14) COc1cccc(CN(C)C(=O)CN2CCN(c3nccs3)CC2)c1 ... -9.6
15) CCCn1ncc(C(=O)NCc2n[nH]c3c2CCCCC3)c1C ... -13.2
16) CC(=O)Nc1cc(C(=O)N2CCOCC2c2ccc(C)o2)ccc1F (configuration not stated) ... -6.36
17) COc1cc(Cl)ccc1C(=O)NCC(=O)Nc1nccs1 ... -5.69

---

- experiment_notes: Human HepG2 cell viability assay in 384 well format
- Format: toxicity, cell-based
- Set-up: dose 125 nL, time 70.5 hour; concentration not given beside the values
- condition_set: HepG2 cells, read-out: Inhibition
endpoint_label: cytotoxicity at 70.5 h (%)

1) Cc1cccc2c1cnn2CCCNC(=O)c1ccnn1C ... -12.7
2) O=C(c1scc2c1OCCO2)N1CCN(Cc2cccc(F)c2)CC1 ... 20.1
3) OCCOCCN1CCCC1c1nc2cc(F)ccc2[nH]1 (configuration not stated) ... 12
4) CN(C)c1ccc(C(=O)N2CCCC2c2noc(C3CC3)n2)nn1 (configuration not stated) ... 13.8
5) CN(Cc1ccccc1)C1(C(=O)O)Cc2ccccc2C1 ... -1.88
6) CNC(=O)[C@@H]1[C@@H](c2ccccc2)CN2CCN(Cc3ccccn3)C[C@H]12 ... -7.27
7) CC(C)(N)C(=O)N1CCCC1c1cncc(Oc2ccccc2)n1 (configuration not stated) ... 2.03

---

Quick reference for cytotoxicity at 70.5 h among some compounds
- experiment_notes: Human HepG2 cell viability assay in 384 well format
- Assay type: toxicity, cell-based
- Design: dose 125 nL, time 70.5 hour; concentration not given beside the values
- condition_set: HepG2 cells, read-out: Inhibition
endpoint_label: cytotoxicity at 70.5 h (%)

1. O=C(c1csc(-c2cccs2)n1)N1CCN2CCCCC2C1 (centres undefined) ... -2.54
2. CC(C(=O)N1CCN(c2ccccc2)CC1)n1cc(Br)cn1 (centres undefined) ... -2.65
3. COc1ccc(CCNC2CCCN(Cc3noc(C)n3)C2)cc1 (centres undefined) ... -14
4. Cc1cc(CN2CC[C@H]3OCC[C@@]3(C(=O)NCc3ccco3)C2)no1 ... 0.284

---

Quick reference for cytotoxicity at 70.5 h among some molecules
- experiment_notes: Human HepG2 cell viability assay in 384 well format
- Format: toxicity, cell-based
- Design: dose 125 nL, time 70.5 hour; concentration not given beside the values
- condition_set: HepG2 cells, read-out: Inhibition
endpoint_label: cytotoxicity at 70.5 h (%)

1. CN1CC(C(=O)N(C)Cc2cc(-c3cccnc3)no2)NC1=O (stereo not given) ... -8.52
2. Cc1cc(C)n(Cc2ccc(-c3noc(C(=O)NCCCO)n3)cc2)n1 ... -21.4
3. O=C(c1cnccn1)N1C[C@@H]2CC[C@H](C1)N(C(=O)CCc1ccsc1)C2 ... -0.591
4. CC(O)CNCc1c[nH]nc1-c1cc2ccccc2o1 (stereo not given) ... 17.5
5. CCC1CN(C(=O)c2ncccc2O)CCC(=O)N1Cc1ccccc1 (stereo not given) ... -0.966

Where do these numbers come from? They come from ChEMBL document CHEMBL3507680.
